# Test Description: Tmax in Sprague-Dawley rat at 5 mg/kg, po
# Format: ADME, organism-based
# Design: dose 5 mg/kg, route oral
# Measurement Conditions: in vivo
Reported Metric: Tmax (h)
Your answer is read as h, so omit the unit and give the number.

**Q:** Value lookup for Tmax; key = Cn1cnc(-c2cc3nccc(Oc4ccc(NC(=S)NC(=O)Cc5ccccc5)cc4F)c3s2)c1
**A:** 3.5

====

# Study System: Vascular endothelial growth factor receptor 2 (Homo sapiens, UniProt P35968)
# Sequence (P35968 whole entry): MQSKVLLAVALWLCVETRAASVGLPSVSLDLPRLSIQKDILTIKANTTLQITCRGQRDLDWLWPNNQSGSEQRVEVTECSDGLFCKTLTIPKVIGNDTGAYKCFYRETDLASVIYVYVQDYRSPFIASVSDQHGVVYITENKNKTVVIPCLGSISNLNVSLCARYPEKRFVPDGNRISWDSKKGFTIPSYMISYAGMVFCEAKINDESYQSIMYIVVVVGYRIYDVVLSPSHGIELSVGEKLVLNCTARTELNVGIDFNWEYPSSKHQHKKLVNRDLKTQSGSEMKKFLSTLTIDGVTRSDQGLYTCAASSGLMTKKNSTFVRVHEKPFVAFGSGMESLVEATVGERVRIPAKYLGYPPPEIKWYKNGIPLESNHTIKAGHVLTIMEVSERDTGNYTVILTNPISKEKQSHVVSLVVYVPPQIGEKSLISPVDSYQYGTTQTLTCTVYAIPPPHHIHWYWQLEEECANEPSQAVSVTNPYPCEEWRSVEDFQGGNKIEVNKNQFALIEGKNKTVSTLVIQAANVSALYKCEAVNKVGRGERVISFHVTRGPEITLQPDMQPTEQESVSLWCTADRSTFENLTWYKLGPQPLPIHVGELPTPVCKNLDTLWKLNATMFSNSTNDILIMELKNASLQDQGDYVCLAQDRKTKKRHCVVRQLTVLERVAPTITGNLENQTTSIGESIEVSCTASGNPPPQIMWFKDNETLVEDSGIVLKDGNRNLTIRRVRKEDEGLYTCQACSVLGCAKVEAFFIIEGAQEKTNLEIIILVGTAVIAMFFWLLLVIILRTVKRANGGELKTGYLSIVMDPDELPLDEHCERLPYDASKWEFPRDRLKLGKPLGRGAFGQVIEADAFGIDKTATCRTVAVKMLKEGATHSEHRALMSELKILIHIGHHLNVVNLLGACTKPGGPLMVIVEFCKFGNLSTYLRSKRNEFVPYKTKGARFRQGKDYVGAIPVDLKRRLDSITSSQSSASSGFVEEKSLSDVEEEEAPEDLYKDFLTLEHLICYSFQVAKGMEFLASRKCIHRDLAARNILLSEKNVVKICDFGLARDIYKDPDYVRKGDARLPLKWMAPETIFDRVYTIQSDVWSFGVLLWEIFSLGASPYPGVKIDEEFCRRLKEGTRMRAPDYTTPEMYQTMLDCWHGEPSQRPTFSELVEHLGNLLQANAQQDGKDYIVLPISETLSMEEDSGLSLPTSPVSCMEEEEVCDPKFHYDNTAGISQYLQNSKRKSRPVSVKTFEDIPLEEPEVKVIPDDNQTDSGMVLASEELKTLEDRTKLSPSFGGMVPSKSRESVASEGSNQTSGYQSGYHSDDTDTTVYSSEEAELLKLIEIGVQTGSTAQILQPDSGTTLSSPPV
# Test Description: Inhibition of GST tagged VEGFR2 expressed in Sf9 cells
Reported Metric: pIC50
Hey, just a heads up that pIC50 is the negative log base 10 of the concentration in molar.

The examples below pair each entry with its known result.
> print(dat)
                           molecular.string                              study.system  reported.value
1  O=C(Cc1ccccc1)NC(=S)Nc1ccc(Oc2ccnc3cc(-c4ncccn4)sc23)c(F)c1  Vascular endothelial growth factor receptor 2 (Homo sapiens, UniProt P35968)            7.03
2  COC(=O)c1cc2nccc(Oc3ccc(NC(=S)NC(=O)Cc4ccccc4)cc3F)c2s1  Vascular endothelial growth factor receptor 2 (Homo sapiens, UniProt P35968)            7.05

The record that follows has no pIC50 shown yet.
**Q:** Value lookup for pIC50; key = O=C(Cc1ccccc1)NC(=S)Nc1ccc(Oc2ccnc3cc(-c4cccnc4)sc23)c(F)c1
**A:** 6.95
